# experimental_protocol: Average particle size of the LNP encapsulating nucleic acid (Zetasizer Nano ZS)
# Assay type: physicochemical
# experimental_setup: LNP encapsulating siRNA 2 (Table 13)
outcome_measure: Particle size (nm)

CCCCCC(CCCCC)CCOC(=O)CCCCCCCC(CCCCCCCC(=O)OCCC(CCCCC)CCCCC)NC(=O)OCCOC1CCN(C)CC1	65.6
CCCCCC(CCCCC)CCOC(=O)CCCCCCCC(CCCCCCCC(=O)OCCC(CCCCC)CCCCC)OC(=O)COCCN(C)CCO	75.6
CCCCCC(CCCCC)CCOC(=O)CCCCCCCC(CCCCCCCC(=O)OCCC(CCCCC)CCCCC)OC(=O)COC1CC2CC1CN2C (racemic)	90.0

* * *

# experimental_protocol: Storage stability: change in encapsulation rate after 4 weeks at room temperature
# Format: physicochemical
# experimental_setup: LNP encapsulating siRNA 1; 4 weeks at room temperature in sealed vials
outcome_measure: Change in encapsulation rate Δ (%)

Solved entries (count: 5):
CCCCCCCCCC(CCCCCCCCC(=O)OCC(CCCC)CCCCCC)OC(=O)C(C)OCCN(C)C (stereo not drawn)	−0.8
CCCCCC(CCCCC)CCOC(=O)CCCCCCCC(CCCCCCCC(=O)OCCC(CCCCC)CCCCC)OC(=O)C1(COCCN(C)C)CC1	−0.8
CCCCCCC(CCCCCC)COC(=O)CCCCCCCC(CCCCCCCC(=O)OCC(CCCCCC)CCCCCC)OC(=O)CSC1CCN(C)CC1	−0.5
CCCCCC(CCCCC)CCOC(=O)CCCCCCCC(CCCCCCCC(=O)OCCC(CCCCC)CCCCC)OC(=O)COC(C)CN(C)C (stereo not drawn)	−0.5
CCCCCC(CCCCC)CCOC(=O)CCCCCCCC(CCCCCCCC(=O)OCCC(CCCCC)CCCCC)OC(=O)CSC1CCN(C)CC1	−0.9

P = CCCCCCCCCC(CCCCCCCCC(=O)OCC(CCCC)CCCCCC)OC(=O)CSC1CCN(C)CC1 (stereo not drawn)
Q = CCCCCCC(CCCCCC)OC(=O)CCCCCCCC(CCCCCCCC(=O)OC(CCCCCC)CCCCCC)OC(=O)CCOCCN(C)C
R = CCCCCCC(CCCC)COC(=O)CCCCCCCC(CCCCCCCC(=O)OCC(CCCC)CCCCCC)COC(=O)C1(COCCN(C)C)CC1 (stereo not drawn)
Rank items: key Change in encapsulation rate Δ (%), increasing. Dear reader, please state the labels in the requested order.
P, Q, R
(P: −0.8%, Q: −0.4%, R: −0.1%)

I = CCCCCCC(CCCCCC)CCOC(=O)CCCCCCCC(CCCCCCCC(=O)OCCC(CCCCCC)CCCCCC)OC(=O)CSC1CCN(C)CC1
II = CCCCCC/C=C\COC(=O)CCCCCCCC(CCCCCCCC(=O)OC/C=C\CCCCCC)OC(=O)CCCN(C)C [ALN-319, reference compound]
I'm curious whether I or II has the smaller Change in encapsulation rate Δ (%) number. Which is it? # reply format: chosen label
II

* * *

# experimental_protocol: Encapsulation rate of the LNP encapsulating nucleic acid (Quant-iT RiboGreen RNA Assay Kit)
# Format: physicochemical
# experimental_setup: LNP encapsulating siRNA 2 (Table 13)
outcome_measure: Encapsulation rate (%)

CCCCCC(CCCCC)CCOC(=O)CCCCCCC(CCCCCCC(=O)OCCC(CCCCC)CCCCC)OC(=O)COC1CCN(C)CC1	94.3
CCCCCC(CCCCC)CC(=O)OCCCCCCCCC(CCCCCCCCOC(=O)CC(CCCCC)CCCCC)OC(=O)COC1CCN(C)CC1	91.2
CCCCCC(CCCCC)CCOC(=O)CCCCCCCC(CCCCCCCC(=O)OCCC(CCCCC)CCCCC)OC(=O)COC1C[C@@H]2CC3C[C@H](C1)N32 (stereo partly drawn)	96.4
CCCCCC(CCCCC)CCOC(=O)CCCCCCCC(CCCCCCCC(=O)OCCC(CCCCC)CCCCC)C(=O)N(C)CCOC1CCN(C)CC1	92.3
CCCCCC(CCCCC)CCOC(=O)CCCCCCCC(CCCCCCCC(=O)OCCC(CCCCC)CCCCC)OC(=O)CO[C@H]1CC[C@@H](N(C)C)CC1	100
CCCCCC(CCCCC)CCOC(=O)CCCCCCCC(CCCCCCCC(=O)OCCC(CCCCC)CCCCC)OC(=O)COC1CC2CC1CN2C (racemic)	101
